Reference source for all entries: PubChem BioAssay AID624330

- assay target: Rac GTPase-activating protein 1 (Homo sapiens)
- measurement notes: blockers of MgcRacGAP-driven Rac1 GTP hydrolysis – biochemical, ADP Hunter fluorescence, primary and confirmatory, confirmation (AID 624330);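 further: fluorescence reports GDP produced by GAP-driven GTP hydrolysis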
- assay conditions: MgcRacGAP-stimulated Rac1 GTP hydrolysis, at 30 µM, hits give high values, GST-tagged Rac1 F28L mutant substrate
Hit rate of the full screen: of about 340,000 compounds, about 2,100 (0.62%) were called active. These entries were drawn from the full list. Results with a measured potency or affinity are listed apart.

sample smiles: S=C(NCCc1ccccc1)N1CCN(C(=S)NCCc2ccccc2)CC1
inhibition (%): 1.96
//
sample smiles: O=C(NC(=S)N1CCN(c2ccc([N+](=O)[O-])cc2)CC1)c1ccco1
inhibition (%): 13.1
//
sample smiles: O=C(CN1CCN(c2ccccc2)CC1)Nc1ccccc1C(=O)NCCc1ccccc1
inhibition (%): 15.8
//
sample smiles: O=C(CN1CCN(S(=O)(=O)c2ccccc2)CC1)Nc1ccccc1C(=O)NC1CC1
inhibition (%): 4.29
//
sample smiles: COc1ccc(N2CCN(C(=S)NCCc3ccccc3)CC2)cc1
inhibition (%): 5.11
